Ref: patent US11034666B2

inhibition at 1 µM values for the molecules below.
molecular target: human GIVA cPLA2 (Homo sapiens, UniProt P47712); assay: In vitro vesicle assay, cPLA2; type: biochemical; conditions: % inhibition at 1 μM oxothiazole; read-out: cPLA2 vesicle assay % Inhib
State just the number; it will be interpreted in %.

CCCCCCCCc1ccc(OCC(=O)c2nc(C(=O)OC)cs2)cc1 [Compound A] : 74
CCCCCCCCCCCCOCC(=O)c1nc(C(=O)OCC)cs1 [Compound W] : 21
O=C(COc1ccccc1)c1nccs1 [Compound D, 2-Phenoxy-1-(thiazol-2-yl)ethanone] : 26

Next up:
(Q) Look at this molecule and give its reported inhibition at 1 µM. CCCCCCCCc1ccc(OCC(=O)c2nc(CC(=O)OCC)cs2)cc1 [Compound Y]
(A) 25

* * *

Molecular target: human GIVA cPLA2 (Homo sapiens, UniProt P47712)
Sequence (P47712 1-749): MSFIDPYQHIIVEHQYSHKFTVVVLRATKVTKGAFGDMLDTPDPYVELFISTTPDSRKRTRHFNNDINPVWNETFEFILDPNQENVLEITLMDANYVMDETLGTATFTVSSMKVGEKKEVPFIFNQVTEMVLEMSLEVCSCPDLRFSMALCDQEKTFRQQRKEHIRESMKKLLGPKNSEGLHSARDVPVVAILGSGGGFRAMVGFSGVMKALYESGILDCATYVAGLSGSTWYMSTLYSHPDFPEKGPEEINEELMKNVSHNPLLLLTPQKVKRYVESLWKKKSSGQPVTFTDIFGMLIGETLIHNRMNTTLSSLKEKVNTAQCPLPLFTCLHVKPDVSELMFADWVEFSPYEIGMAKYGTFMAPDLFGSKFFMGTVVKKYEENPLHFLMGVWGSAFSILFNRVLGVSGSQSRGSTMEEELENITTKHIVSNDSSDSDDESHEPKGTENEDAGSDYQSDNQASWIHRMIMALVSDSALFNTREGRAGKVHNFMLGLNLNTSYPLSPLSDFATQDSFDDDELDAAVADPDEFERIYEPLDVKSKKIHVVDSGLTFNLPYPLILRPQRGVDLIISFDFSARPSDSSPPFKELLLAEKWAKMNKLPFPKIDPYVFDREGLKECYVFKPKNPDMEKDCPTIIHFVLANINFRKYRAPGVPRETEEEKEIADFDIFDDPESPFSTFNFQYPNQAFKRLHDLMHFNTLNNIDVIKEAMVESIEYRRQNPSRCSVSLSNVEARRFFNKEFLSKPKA
Assay: In vitro mixed micelle assay, GIVA cPLA2
Format: biochemical
Details: mixed micelles; 0.091 mole fraction of inhibitor; Table 6; read-out: GIVA cPLA2 % Inhib
inhibition at 0.091 mole fraction values for the compounds below.
State just the number; it will be interpreted in %.

O=C(COc1ccc(-c2ccccc2)cc1)c1nccs1 [Compound B] : 80

(Q) Checklist item: inhibition at 0.091 mole fraction tested on human GIVA cPLA2 (Homo sapiens, UniProt P47712), entry CCCCCCCCCCCCOCC(=O)c1nc(C(=O)OCC)cs1 [Compound W] , value?
(A) 48

(Q) Then CCCCCCCCCCCCOCC(=O)c1nc(CC(=O)OCC)cs1 [Compound X] ?
(A) 49

(Q) Then CCCCCCCCc1ccc(OCC(=O)c2nc(CC(=O)OCC)cs2)cc1 [Compound Y] ?
(A) 64
